- study-system: Melanocyte-stimulating hormone receptor (Homo sapiens, UniProt Q01726)
- Sequence (Q01726 whole entry): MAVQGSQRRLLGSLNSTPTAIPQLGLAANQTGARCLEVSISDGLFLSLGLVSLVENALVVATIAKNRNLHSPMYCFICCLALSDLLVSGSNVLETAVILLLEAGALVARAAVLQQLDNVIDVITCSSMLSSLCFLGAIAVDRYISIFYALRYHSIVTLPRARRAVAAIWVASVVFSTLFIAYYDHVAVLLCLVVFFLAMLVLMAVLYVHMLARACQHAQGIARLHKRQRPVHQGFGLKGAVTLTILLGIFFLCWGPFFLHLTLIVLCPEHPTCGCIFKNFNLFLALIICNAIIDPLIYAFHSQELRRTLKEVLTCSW
- protocol-description: Partial agonist activity at C-terminal HA-tagged human MC1-R stably expressed in HEK293 cells co-expressing GScAMP22P cAMP reporter assessed as inhibition of alpha-MSH induced cAMP production by cell based luminescence assay
- Type: functional

{"entry-smiles": "CCCC[C@H](NC(C)=O)C(=O)N[C@H]1CC(=O)NCCCC[C@@H](C(N)=O)NC(=O)CNC(=O)[C@H](Cc2c[nH]c3ccccc23)NC(=O)[C@H](CCCNC(=N)N)NC(=O)[C@@H](Cc2ccc3ccccc3c2)NC(=O)[C@@H]2C[C@H](NC(=O)CC3CCCCC3)CN2C1=O", "display-unit": "nM", "IC50": 10.5}
{"entry-smiles": "CCCC[C@H](NC(C)=O)C(=O)N[C@H]1CC(=O)NCCCC[C@@H](C(N)=O)NC(=O)CNC(=O)[C@H](Cc2c[nH]c3ccccc23)NC(=O)[C@H](CCCNC(=N)N)NC(=O)[C@@H](Cc2ccc3ccccc3c2)NC(=O)[C@@H]2C[C@H](n3cc(CCC(=O)O)nn3)CN2C1=O", "display-unit": "nM", "IC50": 389}
{"entry-smiles": "CCCC[C@H](NC(C)=O)C(=O)N[C@H]1CC(=O)NCCCC[C@@H](C(N)=O)NC(=O)[C@H](CCCCNC(=N)NCc2ccccc2)NC(=O)[C@H](Cc2c[nH]c3ccccc23)NC(=O)[C@H](CCCNC(=N)N)NC(=O)[C@@H](Cc2ccc3ccccc3c2)NC(=O)[C@@H]2CCCN2C1=O", "display-unit": "nM", "IC50": 92}
{"entry-smiles": "CCCC[C@H](NC(C)=O)C(=O)N[C@H]1CC(=O)NCCCC[C@@H](C(N)=O)NC(=O)[C@H](Cc2ccc(NC(=N)N)cc2)NC(=O)[C@H](Cc2c[nH]c3ccccc23)NC(=O)[C@H](CCCNC(=N)N)NC(=O)[C@@H](Cc2ccc3ccccc3c2)NC(=O)[C@@H]2CCCN2C1=O", "display-unit": "nM", "IC50": 90}
